Data provenance: paper PMC5566973

- assay: Cytotoxicity CCK-8 assay in Caco-2 cells
- Format: cell-based, human
- condition-notes: human, Caco-2 cells; Caco-2, up to 5 μM, 12 h incubation; read-out: Cell viability
parameter: viability at 12 h

compound: COc1ccc2c(c1)[nH]c1c(C)nccc12 [Harmine]
reported-measurement: > 90%

---

- System: OATs
- assay: in vitro
- condition-notes: human, Caco-2, ER, Caco-2, 2 μM, + Cimetidine 0.05 mM (OATs)
parameter: efflux ratio

compound-smiles: COc1ccc2c3c([nH]c2c1)C(C)=NCC3
study-target: OATs
reported-measurement: 0.97

---

- Test system: MRP2
- assay: Bidirectional transport in MDCK cell monolayers with selective transporter inhibitors or substrates
- Assay type: in vitro ADME, canine
- condition-notes: dog, with MK571 0.05 mM (50 μM), + MK571 0.05 mM (MRP2)

compound-smiles: COc1ccc2c(c1)[nH]c1c(C)nccc12
study-target: MRP2
Papp A→B at 120 min, 2 μM [×10⁻⁶ cm/s]: 5.14
